# Tested on: 2A3-H4
# PROTOCOL DETAILS: Surface Plasmon Resonance for VHH antibodies, immobilized irrelevant VHH 2A3-H4
# Assay type: binding
# CONDITION PARAMETERS: SPR; 25 C
MEASUREMENT TYPE: Binding to immobilized 2A3-H4 (comment, in words)

MOLECULE	RESULT
DI-D: anti-hNav1.7 VHH from phage-displayed LAC-M naïve library; SEQ ID NO: 38 (protein, DI-D) VHH: QVKLEESGGGLVQPGGSLKLSCVASGFAFSSAPMDWVRKAPGKDVEWLSTIESDQDHTIYYANSVKGRFTISRDDVQNILYLQMNDLKIEDTATYYCQKRGEKKTRGQGTQVTVSS	No binding
DI-28: VHH from FC5DIE3IR llama immune library; SEQ ID NO: 54 (protein, DI-28) VHH: QAQVQLVESGGGLVQAGGSLRLSCAASGRTFSSSGMGWFRQAPGKDRELVAGISWSGDSAYYANSVAGRFTISRDNINNTVYLQMNSLKPEDTAVYYCAARQGGRNYATSPREYDYWGQGTQVTVSS	No binding
